# assayed_target: NMDA receptor glycine site (Rattus norvegicus)
# Construct: The rat brain membranes used in the experiments were obtained from Analytical Biological Services Inc; tissue Analytical Biological Services Inc; host or cells: rat brain membranes (cerebral cortex and hippocampus, male Sprague Dawley rats)
# experiment_notes: Test A: Inhibition of binding of [3H]-MDL105,519 to brain membranes
# experimental_conditions: inhibition of 1.2 nM [3H]MDL105,519 binding, brain membranes (rat or human not given)
pKi: −log10 of the molar value.
Label scheme for pKi: lower than 7 is no, 7 and above is yes.

O=c1c2ccc(Cl)cc2[nH]c2c(O)nn(Cc3ccc(I)cc3)c(=O)c12    no

Kindly determine if pKi recorded for O=C(Nc1cccc(Cn2nc(O)c3[nH]c4cc(Cl)ccc4c(=O)c3c2=O)c1)NC1CCCCC1 is above or exactly 7.
yes

Kindly determine if pKi recorded for COC(=O)c1c(OC)cc(Cn2nc(O)c3[nH]c4cc(Cl)ccc4c(=O)c3c2=O)cc1OC is above or exactly 7.
yes

Kindly determine if pKi recorded for O=c1c2ccc(Cl)cc2[nH]c2c(O)nn(Cc3ccc(C#CCO)cc3)c(=O)c12 is above or exactly 7.
yes

Values were extracted from patent US20030181449A1.
